Overview of recorded MIC for various molecules
System: Enterobacter aerogenes
Experiment: in vitro antibacterial activity, agar dilution
Format: cell-based
Conditions: Klebsiella aerogenes, strain EB17; read-out: Minimum Inhibitory Concentration

# annotated cases, reported MIC shown
O=CO[C@@H](C(=O)N[C@@H]1C(=O)N2C(C(=O)O)=C(CSc3nnnn3Cc3nnn[nH]3)CS[C@H]12)c1ccccc1    2 µg/mL
CO[C@@]1(NC(=O)Cc2cccs2)C(=O)N2C(C(=O)O)=C(CSc3nnnn3Cc3nnn[nH]3)CS[C@@H]21    > 128 µg/mL
CO/N=C(\C(=O)N[C@@H]1C(=O)N2C(C(=O)O)=C(CSc3nnn(Cc4nnn[nH]4)n3)CS[C@H]12)c1csc(N)n1    0.25 µg/mL
Cn1nnnc1Cn1nnnc1SCC1=C(C(=O)O)N2C(=O)[C@@H](NC(=O)Cc3cccs3)[C@H]2SC1    16 µg/mL
CO/N=C(\C(=O)N[C@@H]1C(=O)N2C(C(=O)O)=C(CSc3nnnn3Cc3nnn[nH]3)CS[C@H]12)c1csc(N)n1    0.25 µg/mL

QUERY: Look up MIC: CO/N=C(\C(=O)N[C@@H]1C(=O)N2C(C(=O)O)=C(CSc3nnnn3Cc3nnnn3C)CS[C@H]12)c1csc(N)n1
RESULT: 0.25 µg/mL

QUERY: What about CCN1CCN(C(=O)N[C@@H](C(=O)N[C@@H]2C(=O)N3C(C(=O)O)=C(CSc4nnnn4Cc4nnn[nH]4)CS[C@H]23)c2ccc(O)cc2)C(=O)C1=O ?
RESULT: 0.5 µg/mL
